TESTED_TARGET: native soluble IL-6R in human plasma (human, UniProt P08887)
ASSAY_SUMMARY: ELISA 1, periplasmic extract; competitor IL-6; human plasma
Quick reference for OD450 ratio sample/blank among some binders
QUANTITY_KIND: OD450 ratio sample/blank

- BINDER: "IL6RPMP101G11 (VHH) VHH: EVQLVESGGGLVQPGGSLRLSCAASASGFTLDYYAIGWFRQAPGKEREGVSCISSTDGSTYYADSVKGRFTISRDNAKNTVYLQMNSLNPEDTGVYTCAAVLTTAQAMGVPTRSYEYDYWGQGTQVTVSS"
  QUANTITY_KIND: "OD450 ratio sample/blank"
  ASSAY_VALUE: 0.227
- BINDER: "IL6RPMP105H10 (VHH) VHH: EVQMVESGGGLVQAGGSLRLSCAASGFAFDDYAIGWFRQAPGKEREGVSSISSSNGNTYYADSVRGRFTISSDNAKNTVYLQMNSLKPEDAGVYYCAAIWGIFFNEKMPVGAYDYWGQGTQVTVSS"
  QUANTITY_KIND: "OD450 ratio sample/blank"
  ASSAY_VALUE: 0.627
- BINDER: "IL6RPMP100G11 (VHH) VHH: EVQLVESGGGLVQAGGSLRLSCAASGRGFSPYTMGWFRQAPGKERVFVAGISWSTGIAHYTDSVKGRFTISRDNAKNTGSLQMNSLKPEDTAVYYCAVVQTTKGNYDYWGQGTQVTVSS"
  QUANTITY_KIND: "OD450 ratio sample/blank"
  ASSAY_VALUE: 1.71
- BINDER: "IL6RPMP103H9 (VHH) VHH: EVQLVESGGGLVQPGGSLRLSCAASKSIFDINAMYWHRQAPGKQRESVASITSGGMRNYADSVKDRFTISKDNAKNTVYLQMNGLKPDDTAVYYCGLGRYEGGVWRDYWGQGTQVTVSS"
  QUANTITY_KIND: "OD450 ratio sample/blank"
  ASSAY_VALUE: 1.59
